Value source: the OligoGym collection

I'd appreciate it if you could supply target mRNA inhibition values for the items below.
biological target: MALAT1; conditions: ASO, A431, 0.005 µM
After the bases stand the sugars from the 5' end (letter, count) and the backbone: PS all phosphorothioate, else s phosphorothioate and o phosphodiester by linkage. Methylation of C is not given here. k = constrained ethyl (cEt); d = 2'-deoxy (DNA)
Numbers only, in %.

>>> print(df.to_string())
                                  seq_text  experimental_target  measurement_unit  observed_result
0  CTCGCCTCCTCCGTGT (sugars k3 d10 k3, PS)               MALAT1                 %               10
1  GAGGCTGACACTTCTC (sugars k3 d10 k3, PS)               MALAT1                 %              -10
2  TACCATAAGTAAGTTC (sugars k3 d10 k3, PS)               MALAT1                 %                4
3  TGCCTTTACTTATCAA (sugars k3 d10 k3, PS)               MALAT1                 %               26
4  AGCTCCTGACAAATTA (sugars k3 d10 k3, PS)               MALAT1                 %               15

Hey, can you go through the list below and give me target mRNA inhibition for every item?
1. CGTGAGAACTGCTCTA (sugars k3 d10 k3, PS)
2. TCCCACCCAGCATTAC (sugars k3 d10 k3, PS)
3. GAACCACAACAATTTA (sugars k3 d10 k3, PS)
4. TTACCATAAGTAAGTT (sugars k3 d10 k3, PS)
5. TGTGTTATGCCTGGTT (sugars k3 d10 k3, PS)
6. CTTCGGATGCTTCACT (sugars k3 d10 k3, PS)

1: 37; 2: 27; 3: 19; 4: -20; 5: 1; 6: 33

---

biological target: KRAS; details: ASO, A431, 2 µM
After the bases stand the sugars from the 5' end (letter, count) and the backbone: PS all phosphorothioate, else s phosphorothioate and o phosphodiester by linkage. Methylation of C is not given here. e = 2'-O-(2-methoxyethyl) (MOE); k = constrained ethyl (cEt); d = 2'-deoxy (DNA)
Task for the reader: assign each of the following sequences its reported target mRNA inhibition.
One number for each entry, in %.

                                   seq_text  observed_result
0  CAGTGTGACTCAGTTA (sugars kkddddddddddkeke, PS)               51
1  AGATTGTGCTGAGCTT (sugars k3 d9 k3 e1, PS)               42
2   TTGTATCTTGTTGAGC (sugars k3 d10 k3, PS)               50
3   TGAAAAGTGTTTATGC (sugars k3 d10 k3, PS)               40
4   GTGCAATGGTGACAAC (sugars k3 d10 k3, PS)               38
5   CAAGATGACACTAATA (sugars k3 d10 k3, PS)               18
6  ATGCTGTGAAACTCTC (sugars kkkdddddddddkeke, PS)                2
7  GTCCAGTGATACTTTC (sugars k3 d9 k3 e1, PS)               48

Each of the following entries comes with a recorded value; kindly state target mRNA inhibition for each.
1. CCATTCAAAGTTCACA (sugars k3 d9 k3 e1, PS)
2. ACCAGTGTTAAGAGAA (sugars kkddddddddkekekk, PS)

1: 41; 2: 52

What value of target mRNA inhibition has been recorded for this entry: CCATTTATGTGACTAG (sugars kkddddddddkekekk, PS)
0
